target: Metabotropic glutamate receptor 3 (Rattus norvegicus, UniProt P31422)
Sequence (P31422 whole entry): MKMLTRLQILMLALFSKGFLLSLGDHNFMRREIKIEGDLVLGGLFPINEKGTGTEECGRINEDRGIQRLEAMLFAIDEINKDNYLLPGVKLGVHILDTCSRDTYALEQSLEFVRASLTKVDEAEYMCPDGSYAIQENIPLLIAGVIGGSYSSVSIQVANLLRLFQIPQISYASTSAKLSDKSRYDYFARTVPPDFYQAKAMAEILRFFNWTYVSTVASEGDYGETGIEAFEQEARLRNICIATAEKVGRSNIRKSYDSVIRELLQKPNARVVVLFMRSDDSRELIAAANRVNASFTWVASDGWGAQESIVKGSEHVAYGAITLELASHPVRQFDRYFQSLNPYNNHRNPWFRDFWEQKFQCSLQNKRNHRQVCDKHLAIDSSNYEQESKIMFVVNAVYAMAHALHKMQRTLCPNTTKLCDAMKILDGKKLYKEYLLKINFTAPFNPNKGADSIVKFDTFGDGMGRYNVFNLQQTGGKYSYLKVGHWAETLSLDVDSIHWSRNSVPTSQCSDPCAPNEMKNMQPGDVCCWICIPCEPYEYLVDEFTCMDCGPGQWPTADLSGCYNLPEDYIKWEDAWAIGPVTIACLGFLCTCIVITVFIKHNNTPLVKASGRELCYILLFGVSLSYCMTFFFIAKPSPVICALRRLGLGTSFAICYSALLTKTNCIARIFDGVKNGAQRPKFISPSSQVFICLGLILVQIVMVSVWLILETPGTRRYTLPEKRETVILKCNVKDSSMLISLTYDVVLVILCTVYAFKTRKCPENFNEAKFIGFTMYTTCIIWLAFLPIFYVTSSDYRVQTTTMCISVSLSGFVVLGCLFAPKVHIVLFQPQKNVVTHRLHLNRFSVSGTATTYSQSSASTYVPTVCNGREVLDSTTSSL
measured metric: Ki

>>> recorded_result("NC(=O)CC[C@H](C[C@H](N)C(=O)O)C(=O)O")
"> 1000 µM"

Note: attention shifts to another entry.
Given item COC(=O)CC[C@H](C[C@H](N)C(=O)O)C(=O)O , the value recorded as its Ki is > 1000 µM

====

molecular target: Glutamate receptor ionotropic, kainate 1 (Rattus norvegicus); test: Displacement of [3H]SYM2081 from rat recombinant iGluR5; conditions: read-out: Ki
Sequence (P22756 whole entry): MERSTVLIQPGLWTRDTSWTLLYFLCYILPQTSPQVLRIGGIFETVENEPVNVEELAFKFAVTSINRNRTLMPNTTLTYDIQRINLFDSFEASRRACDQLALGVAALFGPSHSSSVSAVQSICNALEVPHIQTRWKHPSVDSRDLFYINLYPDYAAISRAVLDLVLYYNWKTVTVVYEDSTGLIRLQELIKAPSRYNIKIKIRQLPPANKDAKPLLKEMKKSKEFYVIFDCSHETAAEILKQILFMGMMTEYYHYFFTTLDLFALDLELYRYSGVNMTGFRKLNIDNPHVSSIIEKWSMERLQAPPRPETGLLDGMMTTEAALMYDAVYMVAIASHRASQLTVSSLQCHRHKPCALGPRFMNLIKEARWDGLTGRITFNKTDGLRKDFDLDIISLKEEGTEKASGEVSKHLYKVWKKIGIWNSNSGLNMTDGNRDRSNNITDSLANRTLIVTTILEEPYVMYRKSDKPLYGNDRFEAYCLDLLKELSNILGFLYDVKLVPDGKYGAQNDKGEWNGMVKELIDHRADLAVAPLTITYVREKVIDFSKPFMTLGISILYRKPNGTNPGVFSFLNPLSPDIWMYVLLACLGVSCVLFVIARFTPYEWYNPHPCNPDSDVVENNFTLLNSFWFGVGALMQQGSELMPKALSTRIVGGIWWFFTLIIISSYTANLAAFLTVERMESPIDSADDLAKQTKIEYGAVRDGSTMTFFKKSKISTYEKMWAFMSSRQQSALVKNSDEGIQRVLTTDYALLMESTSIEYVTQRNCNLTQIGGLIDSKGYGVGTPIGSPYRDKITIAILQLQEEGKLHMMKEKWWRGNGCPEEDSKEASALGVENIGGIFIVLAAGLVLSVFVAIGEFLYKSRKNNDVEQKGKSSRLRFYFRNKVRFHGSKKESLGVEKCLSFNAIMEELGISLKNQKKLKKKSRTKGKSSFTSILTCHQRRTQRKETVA
Ki reference
Use µM as the unit, but write only the number.

>>> recorded_result("CCNC(=O)CC[C@H](C[C@H](N)C(=O)O)C(=O)O")
0.641
>>> recorded_result("N[C@@H](Cn1oc(=O)[nH]c1=O)C(=O)O [QUISQUALATE]")
0.171

Note: attention shifts to another entry.
Summary line: C/C(=C\C=C\[C@@H](C)C(=O)O)[C@H]1CN[C@H](C(=O)O)[C@H]1CC(=O)O , Glutamate receptor ionotropic, kainate 1 (Rattus norvegicus), reported Ki = 0.00111
